// data source = patent US20250152729A1

Molecular target: T1, human SEMA4A expressed on cells (UniProt ID Q9H3S1, isoform 1) (human, UniProt Q9H3S1 33-761)
T1 sequence: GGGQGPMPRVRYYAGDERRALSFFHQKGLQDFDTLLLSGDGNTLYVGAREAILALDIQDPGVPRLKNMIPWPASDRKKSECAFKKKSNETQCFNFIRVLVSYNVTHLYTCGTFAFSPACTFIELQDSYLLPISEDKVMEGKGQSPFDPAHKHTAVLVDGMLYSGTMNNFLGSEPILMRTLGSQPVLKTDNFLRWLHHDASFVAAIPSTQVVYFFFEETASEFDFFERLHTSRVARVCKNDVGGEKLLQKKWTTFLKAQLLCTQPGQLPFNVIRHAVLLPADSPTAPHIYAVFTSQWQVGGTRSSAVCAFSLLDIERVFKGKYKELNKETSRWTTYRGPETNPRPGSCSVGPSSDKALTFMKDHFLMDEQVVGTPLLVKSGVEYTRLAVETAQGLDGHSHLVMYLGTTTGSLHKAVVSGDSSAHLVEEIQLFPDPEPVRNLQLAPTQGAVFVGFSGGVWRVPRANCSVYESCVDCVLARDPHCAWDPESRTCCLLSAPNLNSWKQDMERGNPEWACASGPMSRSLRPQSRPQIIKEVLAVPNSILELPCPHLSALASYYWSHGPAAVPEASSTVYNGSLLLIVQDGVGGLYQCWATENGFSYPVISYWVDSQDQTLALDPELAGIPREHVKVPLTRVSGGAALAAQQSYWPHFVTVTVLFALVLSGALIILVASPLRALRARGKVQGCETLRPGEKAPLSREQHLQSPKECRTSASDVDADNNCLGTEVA
Assay: cell-based or functional assay
measured attribute: Average NCI-H929 IC50 [pM], cell kill

- binder: "C0120903 human Alya IgG1 conjugated to McMMAF (antibody, V domains shown, McMMAF on the engineered cysteines 239iCys and S442C (EU numbering) of the heavy constant region, Antibody-drug conjugate; human IgG1 Alya constant; also called C0120903-McMMAF) VH: EVQLVQSGAEVKKPGSSMKVSCKASGGTFNSYTINWVRQAPGQGLEWVGGFIPIFGTADYAQKFHGRVAITADESMSTAYMELSSLRSEDTAVYYCARAPLGSEPFDYWGQGTMVTVSS VL: SYVLTQPPSVSVAPGQTARITCGGNNIGSKSVHWYQQKPGQAPVLVVYDDSDRPSGIPERFSGSNSGNTATLTISRVEAGDEADYYCQVWDSSSDHLVFGGGTKLTVL"
  Average NCI-H929 IC50 [pM], cell kill: "7.1 pM"
- binder: "C0120914 human Alya IgG1 conjugated to McMMAF (antibody, V domains shown, McMMAF on the engineered cysteines 239iCys and S442C (EU numbering) of the heavy constant region, Antibody-drug conjugate; human IgG1 Alya constant; also called C0120914-McMMAF) VH: QVQLQESGPGLVKPSETLSLTCTVSGGSVSSGRYDWSWIRQPPGKGLEWIGHIYYTGITDYNPSLRSRVTISADKPKNQFSLKLNSVTAADTAVYYCARGPFFDPWGQGTMVTVSS VL: QSVLTQPPSVSVAPGQTASLTCGANNIGSKSVQWYQQKPGQAPVLVVYDGSDRPSGIPDRFSGSSSENTATLTISRVEAGDEADYYCQLWDSVTDRPVFGGGTKVTVL"
  Average NCI-H929 IC50 [pM], cell kill: "2.5 pM"
- binder: "C0120910 human Alya IgG1 conjugated to McMMAF (antibody, V domains shown, McMMAF on the engineered cysteines 239iCys and S442C (EU numbering) of the heavy constant region, Antibody-drug conjugate; human IgG1 Alya constant) VH: QVQLVESGGGVVQPGRSLRLSCEASEFTFSNYAMHWVRQAPDKGLEWVAGILYDGATAHYADSVKGRFTISRDNSKNTLYLQINSLRAEDTAVYYCARAHYYDYWSGLSFEYWGRGTLVTVSS VL: QSVLTQPPSASVSPGQTASIPCSGDDLGDKYIYWYQQKPGQSPVLVIYQDSRRPPGIPERFSGSNSGNTATLTISGTQPMDEADYYCQTWDTSSASAVFGGGTKVTVL"
  Average NCI-H929 IC50 [pM], cell kill: "3990 pM"

Alright, here's another binder for you.
For the binder C0120906 human Alya IgG1 conjugated to McMMAF (antibody, V domains shown, McMMAF on the engineered cysteines 239iCys and S442C (EU numbering) of the heavy constant region, Antibody-drug conjugate; human IgG1 Alya constant; also called C0120906-McMMAF) VH: EVQLVQSGPEVKKPGASVKISCKASGYKLNDPGVHGVSWVRQAPGQGLEWMGWISTLNGDTRYAQKFQGRVTMATDSSTSTIYMDLRSLKSDDTALYYCARDDYTAIFDFWGRGTLVTVSS VL: QSVLTQPPSVSVAPGQTASITCGGSNIGSQSVHWYQQKPGQAPVLVVYDDSDRPSGIPERFSGSKSGNTASLILSRVEAGDEADYYCQVWDSSTDHHVFGTGTKVTVL , give its measured Average NCI-H929 IC50 [pM], cell kill value.
3 pM
